Tested on: HT29 colon
ASSAY TEXT: NCI-60 one-dose screen, 48 h (100 = growth as untreated, 0 = no growth, -100 = all killed)
CONDITIONS: 10 µM unless noted
The panel holds about 83,000 compounds, 20% with a hit somewhere; the sample as a whole holds those more often. Active and inactive are the calls of the source. Rule for the calls: active = growth percent below 10; inactive = the rest.
METRIC NAME: growth

Worked examples follow.
growth measured on "CCCCC(CCCC)(S(=O)(=O)CC)S(=O)(=O)CC" = 105% (inactive)

growth measured on CC(C)(C)[Si](C)(C)OC1[C@@H](O[Si](C)(C)C(C)(C)C)[C@@H](CNC(=O)NC(=O)C(F)(F)F)O[C@H]1n1cnc2c(NC(=O)Nc3ccccc3)ncnc21 (stereo not given in full) = 21.3% (inactive)

growth measured on "COc1cccc(OC(=O)c2ccccc2)c1OC(=O)c1ccccc1" = 85.3% (inactive)

growth measured on "COc1cc(/C=C2\C(=O)Nc3ccccc32)cc(OC)c1O" = 75.7% (inactive)

Kindly consider the entry below.
growth measured on "O=S(=O)(/N=C1C=C/C(=N\S(=O)(=O)c2ccccc2)c2ccccc2\1)c1ccccc1" = 118% (inactive)

====

Task for the reader: assign each of the following compounds its reported growth.
System: SF-539 CNS
ASSAY TEXT: NCI-60 one-dose screen, 48 h (100 = growth as untreated, 0 = no growth, -100 = all killed)
CONDITIONS: 10 µM unless noted
About 83,000 compounds went through this panel and 20% of them were active in at least one assay; those are over-represented in the sample as a whole.
Answers are plain numbers, in %.

Worked examples follow.
growth measured on "CC1(C)N=C(N)N=C(N)N1c1cccc(/C=C/C=C/c2cccc([N+](=O)[O-])c2)c1" = 15.9

growth measured on "COc1ccc(-n2ncc3c4nc(OC)c(S(=O)(=O)c5ccccc5)cc4ccc32)cc1" = 30.7

growth measured on "COc1ccc(-c2cc(=O)oc3c4c(ccc23)OCN(Cc2ccc(F)cc2)C4)cc1" = 74.7

Quick batch: growth for everything below.
1. COc1ccc(-c2c(-c3cc4c(c(OC)c3OC)OCO4)noc2N)cc1
2. COc1ccc(/C=C2\CN(Cc3cn(CCCNc4ccnc5cc(Cl)ccc45)nn3)C/C(=C\c3ccc(OC)c(OC)c3)C2=O)cc1OC
3. COC(=O)c1ccc(C(=O)Nc2ccccc2N)cc1
4. COc1ccc(C2CC(c3cc(OC)c(OC)c(OC)c3)=NN2c2ccc(S(N)(=O)=O)cc2)cc1 (stereo not drawn)

Output:
1. 1.11
2. 6.69
3. 64.9
4. 77.8

Quick batch: growth for everything below.
1. C[C@@H](Oc1cc(-c2cnn(C3CC4(CCNCC4)C3)c2)cnc1N)c1c(F)ccc(Cl)c1Cl
2. Cc1cc(=O)oc2c1ccc1oc(C(=O)c3ccccc3)c(C)c12
3. COc1ccc(OC)c2ncccc12
4. CCN(CC)c1ccc(/C=C(\C#N)c2cc3ccccc3[nH]2)cc1
5. COc1ccc(-c2c3c(N)c4c(nc3nc3c2c(C)nn3-c2ccccc2)CCCC4)cc1

Output:
-90.7
92.5
102
58.3
91.8

Quick batch: growth for everything below.
1. O=C(N/N=C/c1ccc(F)cc1)c1[nH]c2ccc(I)cc2c1-c1ccccc1
2. O=C1CCC(N2C(=O)c3cccc(NCCOCCOCCNC(=O)c4cc5c(o4)C(=O)c4ccccc4C5=O)c3C2=O)C(=O)N1 (stereo not drawn)
3. COc1cc(/C=N/NC(=O)c2cnn3c2NC(c2ccccc2)C3)ccc1OC1CCCC1 (stereo not drawn)
4. Cc1nc2ccc(Cl)cc2n1C
5. CSc1ccc(OC(C)=O)cc1C
6. CC1(C)N=C(N)N=C(N)N1c1cccc(OCCOc2cccc([N+](=O)[O-])c2)c1

Output:
[-18.1, -95.2, -15.6, 106, 98.5, 26.1]

Quick batch: growth for everything below.
1. Cc1ccc(N(CSc2ccc(Cl)cc2)CSc2ccc(Cl)cc2)cc1
2. CCCCCCCC/C=C\CCCCCCCCOc1cccc(CC(=O)NCC[N+]2(C)CCCCC2)c1
3. CCN(C(=O)c1ccc2c3c(cccc13)C=C2)c1ccccc1

Output:
1: 16.1; 2: 99.1; 3: 97.4
